Test system: Escherichia coli TOP10;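 also: peptides expressed intracellularly from a pBAD plasmid library in pooled LB shake-flask culture, induced with 0.3% L-arabinose, DNA abundance read by NGS, three biological replicates, DESeq2 with apeglm shrinkage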
Experiment: shrunken log2 fold change of peptide-encoding DNA abundance (4.5 h post-induction vs induction); higher = less antimicrobial activity (less host growth inhibition)
Settings: time post-induction: 4.5 h; library: site-saturation at positions 5, 18, 19, 20
List of shrunken log2 fold change values.
Could you keep your reply to the number by itself?

RRIRLRPPRLPRPRPRPSHLPRP -0.491
RRIRHRPPRLPRPRPRPHFDPRP -0.107
RRIRSRPPRLPRPRPRPHQRPRP -0.249
RRIRGRPPRLPRPRPRPWRPPRP 0.376
RRIRNRPPRLPRPRPRPFVLPRP -0.451

Which shrunken log2 fold change is reported for this sequence? RRIRVRPPRLPRPRPRPKDNPRP
-0.438

Returns the measured shrunken log2 fold change for the input sequence. Input: RRIRLRPPRLPRPRPRPSKAPRP
-0.0252

Fill in the blank: the reported shrunken log2 fold change of RRIRNRPPRLPRPRPRPHQWPRP is ____.
-0.0998

Fill in: shrunken log2 fold change of RRIRIRPPRLPRPRPRPENFPRP is ___
-0.0605

What shrunken log2 fold change value was documented for this sequence, RRIRHRPPRLPRPRPRPWLLPRP ?
-0.397

Which shrunken log2 fold change value is on record for RRIRNRPPRLPRPRPRPCAQPRP ?
0.127

Dear colleague, I am looking for the recorded shrunken log2 fold change of the following sequence: RRIRCRPPRLPRPRPRPKIYPRP
-0.643

Look at this sequence and give its reported shrunken log2 fold change. RRIRRRPPRLPRPRPRPQEMPRP
0.51

Record request: shrunken log2 fold change value, item RRIRGRPPRLPRPRPRPYESPRP
0.133

Dear colleague, I am looking for the recorded shrunken log2 fold change of the following sequence: RRIRQRPPRLPRPRPRPYITPRP
-0.0324

What value of shrunken log2 fold change has been recorded for this entry: RRIRHRPPRLPRPRPRPPLPPRP
0.476

// shrunken log2 fold change lookup, key: RRIRTRPPRLPRPRPRPFVYPRP
-0.639

shrunken log2 fold change lookup needed for RRIRWRPPRLPRPRPRPPNWPRP , thanks.
0.603

I have this sequence here, RRIRQRPPRLPRPRPRPFHTPRP , and I need its recorded shrunken log2 fold change.
-0.0573

Can you look up the measured shrunken log2 fold change of RRIRYRPPRLPRPRPRPNTHPRP for me?
-1.02

Could you share which shrunken log2 fold change value was measured for RRIRTRPPRLPRPRPRPPMWPRP ?
0.0903

# lookup: shrunken log2 fold change of RRIRNRPPRLPRPRPRPLPRPRP
0.102

For the sequence shown here, RRIRKRPPRLPRPRPRPHLIPRP , give the reported shrunken log2 fold change.
0.108

Origin of measurements: the supplement of paper PMC9112550
